The measurements presented in this section are drawn from the supplement of paper PMC7125110.

B1: glmS ribozyme (parent)
chain: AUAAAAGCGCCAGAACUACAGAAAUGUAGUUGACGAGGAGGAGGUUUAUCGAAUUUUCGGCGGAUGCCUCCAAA

Variants of: B1
Assay: self-cleavage kobs at 2500 uM GlcN6P; higher = faster cleavage; RNA array
Conditions: with glucosamine-6-phosphate
Fewer inactive variants are shown than the library holds.
Entries and their self-cleavage kobs at 2500 uM GlcN6P values follow.
Enter your answer as a number in s⁻¹; do not include the unit.

AUAAAAGCGCCAGAAAUACAGAAAUGUAGUUGACGAGGAGGAGGUUUAUCGAAUUUUCGGCGGAUGCCUACAAA [C16A C70A]: 6.59e-05
AUAAAAGCGCCUGAACUACAGAAAUGUAGUUGACGAGGAGGAGGUUCAUCGAAUUUUCGGCGGAUGCCUCCAAA [A12U U47C]: 0.0111
AUAAAAGCGCCAGAACUACAGAAAUGUAGUUGACGAGGAGGAGGUUUAUCGGAUUUUAGGCGGAUGCCUCCAAA [A52G C58A]: 4.01e-05
AUAAAAGCGCCAGAACUACAGAAAUGUAGUUGUCGAGGAGUAGGUUUAUCGAAUUUUCGGCGGAUGCCUCCAAA [A33U G41U]: 2.26e-05
AUAAAAGCGCCAGAACUACAGAAAUGUAGUUGACGAGGAGGAGGUUUAUCGAAUUUCCGGCGGAUGCCUCCAAA [U57C]: 0.000136

Now take the following variant into account.
Value lookup for self-cleavage kobs at 2500 uM GlcN6P; key = AUAAAAGCGCUAGAACUACAGAAAUGUAGUUGACGAGGAGGAGGUUUAUCGACUUUUCGGCGGAUGCCUCCAAA [C11U A53C]
0.000307
